# Assay: modulators of HCV replicon luciferase signal, primary screen, HCV replication inhibitor project, Huh7 cells, luciferase reporter (AID 1109);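 note: huh7 hepatoma cells harbouring a luciferase neomycin HCV replicon reporter; luciferase luminescence as measure of HCV replicon replication; test concentration not given here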
# Condition Context: 48 h, higher = more signal
Kindly return criterion met if reported z-score is no lower than -0.7; return criterion not met if it is lower.

# example entries with known answers
- COc1ccc([Si](C)(C)[C@@H]2[C@@H](CC(=O)N3CCC[C@H]3CO)O[C@]3(C(=O)N(c4ccccc4)c4ccccc43)[C@H]2C)cc1: criterion met
- COCCOC(=O)N1C(=O)[C@@]2(c3cc(C#CCNC(N)=O)ccc31)[C@H](C(=O)N1CCN(c3ncccn3)CC1)[C@H]1C(=O)O[C@H](c3ccccc3)[C@H](c3ccccc3)N1[C@@H]2c1ccc(OCCO)cc1: criterion not met
- C=CCOC(=O)[C@H]1[C@@H]2C(=O)O[C@@H](c3ccccc3)[C@@H](c3ccccc3)N2[C@@H](c2ccc(OCCOC(=O)[C@H]3C[C@H]4C(=O)N[C@@H](CCCCNC(C)=O)C(=O)N4[C@H]3c3ccc(O)cc3)cc2)[C@]12C(=O)Nc1ccc(I)cc12: criterion not met
- NC(=O)N1C(=O)C2C(C1=O)C1C=C(c3ccc(CO)cc3)C2C(c2cccs2)N1Cc1cccc(OC(F)(F)F)c1 (stereo unspecified): criterion met
- C=CC1(C(=O)OC)CC=C(C(=O)OC)CC1 (stereo unspecified): criterion not met

I'd appreciate it if you could say whether CC(C)[Si](C#Cc1ccc(Oc2ccccc2)cc1)(O[Si](C#Cc1ccc(Oc2ccccc2)cc1)(C(C)C)C(C)C)C(C)C has z-score at least equal to -0.7.
criterion met

---

# System: Wnt5a (protein binding on small-molecule microarray)
# Assay: Wnt5a binders on small-molecule microarray, primary screen, biophysical, 635/667 nm fluorescence (AID 1142);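 note: fluorescence read at 667 nm with signal to noise per printed feature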
# Condition Context: 635 nm fluorescence, higher = more signal
Kindly return Met if reported composite z-score is no lower than -0.005; return Not met if it is lower.

# example entries with known answers
* CN1C(=O)C2C=CC(C(O)c3ccccc3)N(N(c3ccccc3)c3ccccc3)C2C1=O (stereo unspecified) | Not met
* CCCCN1CC=CC23O[C@@H]4C=CCCOC(=O)C4[C@H]2C(=O)N(CCCCCCO)[C@@H]3C1=O (stereo partly specified) | Not met
* CC(C)C(=C=CC[C@@H](O)c1ccc(OCCO)cc1)C[C@@H](O)c1ccccn1 | Met
* COc1ccc(C#Cc2ccc3c(c2)[C@]2(C(=O)N3)[C@H](C(=O)NC[C@H](O)c3ccccc3)[C@H]3C(=O)O[C@H](c4ccccc4)[C@H](c4ccccc4)N3[C@@H]2c2ccc(O)cc2)cc1 | Met

I'd appreciate it if you could say whether CC(C)NC(=O)[C@@]1(C)c2ccccc2C(=O)N(Cc2cc(C(F)(F)F)cc(C(F)(F)F)c2)[C@H]1c1ccc(CO)cc1 has composite z-score at least equal to -0.005.
Not met

I'd appreciate it if you could say whether CCC[C@@H]1C[C@@]1(CCC)[C@@H](NC(=O)c1ccccc1)c1cccc(Cl)c1 has composite z-score at least equal to -0.005.
Met

I'd appreciate it if you could say whether NCCCCCCNC(=O)[C@@H]1C[C@@H]2C(=O)NCC(=O)N2[C@@H]1c1ccc(O)cc1 has composite z-score at least equal to -0.005.
Met

I'd appreciate it if you could say whether CC(C)OC(=O)C=C1C[C@@H](c2ccccn2)O[C@@H](c2ccccn2)O1 has composite z-score at least equal to -0.005.
Met

I'd appreciate it if you could say whether O=C1C[C@@](C(=O)NCC(F)(F)F)(c2ccc([N+](=O)[O-])cc2)[C@@H](c2ccc(CO)cc2I)N1C1CCCCC1 has composite z-score at least equal to -0.005.
Met
